Biological target: T1, human erythropoietin receptor (EpoR) on human erythroleukemic cells (human, UniProt P19235 25-508)
T1 sequence (looked up): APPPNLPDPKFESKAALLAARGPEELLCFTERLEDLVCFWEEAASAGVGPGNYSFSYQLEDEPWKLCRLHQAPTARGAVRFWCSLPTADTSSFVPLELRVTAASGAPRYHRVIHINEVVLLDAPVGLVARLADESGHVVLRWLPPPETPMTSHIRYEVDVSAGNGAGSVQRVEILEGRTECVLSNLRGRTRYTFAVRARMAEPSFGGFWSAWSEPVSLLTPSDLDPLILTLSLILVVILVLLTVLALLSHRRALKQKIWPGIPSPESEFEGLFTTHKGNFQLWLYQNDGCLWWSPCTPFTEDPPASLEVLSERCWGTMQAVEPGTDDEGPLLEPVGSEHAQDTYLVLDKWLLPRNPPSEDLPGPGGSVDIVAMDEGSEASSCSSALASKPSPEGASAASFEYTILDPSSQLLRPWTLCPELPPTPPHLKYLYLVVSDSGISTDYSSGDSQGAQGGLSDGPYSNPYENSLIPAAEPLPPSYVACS
Assay: cell-based or functional assay
result type: Emax (cell proliferation, absorbance)

Completed entries (count: 5):
INSERT INTO results (binder, result_type, value) VALUES
  ('Ab12.121 (antibody, IgG2, V domains shown) VH: QVQLQESGPGLVKPSETLSLTCTVSGASISSYYWSWIRQPPGKGLEWIGYIGGSGSTNYNPSLKSRVTISVDTSKNQFSLKLRSVTAADTAVYYCARERLGIGDYWGQGTLVTVSS VL: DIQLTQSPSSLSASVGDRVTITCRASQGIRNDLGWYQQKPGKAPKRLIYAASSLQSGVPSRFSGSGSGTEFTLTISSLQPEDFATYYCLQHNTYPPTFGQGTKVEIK', 'Emax (cell proliferation, absorbance)', '2.3 absorbance (OD 490 nm)'),
  ('Ab12.120 (antibody, IgG2, V domains shown) VH: QVQLQESGPGLVKPSETLSLTCTVSGASISSYYWSWIRQPPGKGLEWIGYIYYEGSTNYNPSLKSRVTISVDTSKNQFSLKLRSVTAADTAVYYCARERLGIGDYWGQGTLVTVSS VL: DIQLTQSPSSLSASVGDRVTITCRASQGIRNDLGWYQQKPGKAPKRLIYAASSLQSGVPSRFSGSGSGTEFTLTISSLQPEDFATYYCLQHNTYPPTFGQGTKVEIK', 'Emax (cell proliferation, absorbance)', '2 absorbance (OD 490 nm)'),
  ('Ab12.56 (antibody, V domains shown, CDRH2 Y Y S is changed to A G T against Ab12) VH: QVQLQESGPGLVKPSETLSLTCTVSGASISSYYWSWIRQPPGKGLEWIGYIAGTGSTNYNPSLKSRVTISVDTSKNQFSLKLRSVTAADTAVYYCARERLGIGDYWGQGTLVTVSS VL: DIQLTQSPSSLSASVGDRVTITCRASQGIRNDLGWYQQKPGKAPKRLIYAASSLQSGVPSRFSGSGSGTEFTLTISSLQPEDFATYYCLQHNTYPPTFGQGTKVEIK', 'Emax (cell proliferation, absorbance)', '2.51 absorbance (OD 490 nm)'),
  ('Ab12.123 (antibody, IgG2, V domains shown) VH: QVQLQESGPGLVKPSETLSLTCTVSGASISSYYWSWIRQPPGKGLEWIGYIGYEGSTNYNPSLKSRVTISVDTSKNQFSLKLRSVTAADTAVYYCARERLGIGDYWGQGTLVTVSS VL: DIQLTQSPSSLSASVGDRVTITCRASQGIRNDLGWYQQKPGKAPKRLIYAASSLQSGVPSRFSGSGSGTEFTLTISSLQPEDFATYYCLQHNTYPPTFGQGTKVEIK', 'Emax (cell proliferation, absorbance)', '2.7 absorbance (OD 490 nm)'),
  ('Ab12 IgG2/K (antibody, V domains shown, Human IgG2/kappa) VH: QVQLQESGPGLVKPSETLSLTCTVSGASISSYYWSWIRQPPGKGLEWIGYIYYSGSTNYNPSLKSRVTISVDTSKNQFSLKLRSVTAADTAVYYCARERLGIGDYWGQGTLVTVSS VL: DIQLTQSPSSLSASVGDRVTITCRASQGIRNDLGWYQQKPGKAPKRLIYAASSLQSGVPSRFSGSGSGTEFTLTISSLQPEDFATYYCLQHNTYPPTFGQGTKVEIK', 'Emax (cell proliferation, absorbance)', '1.98 absorbance (OD 490 nm)');

Now consider the entry below.
Query: Report Emax (cell proliferation, absorbance) for Ab12.6 (antibody, V domains shown, CDRH2 Y Y S is changed to G G E against Ab12; also called H2-1-3 R2 #6) VH: QVQLQESGPGLVKPSETLSLTCTVSGASISSYYWSWIRQPPGKGLEWIGYIGGEGSTNYNPSLKSRVTISVDTSKNQFSLKLRSVTAADTAVYYCARERLGIGDYWGQGTLVTVSS VL: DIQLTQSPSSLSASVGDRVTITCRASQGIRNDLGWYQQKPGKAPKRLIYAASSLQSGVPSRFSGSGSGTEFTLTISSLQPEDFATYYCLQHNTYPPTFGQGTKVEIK please.
Result: 2.81 absorbance (OD 490 nm)
